system: Escherichia coli; format: cell-based
Numbered stars: 1 amine (or outer) side, 2 acyl side, 3 side chain; on linkers, the order of the positions; unused ones are H or OH. Bridge positions count the residues as written; N and C are the ends. Square brackets hold non-standard residues; d marks the D form. Peptide text beside a SMILES is read from it. * marks the point of attachment. ξ: configuration not given here. X5 = CCCCCCCCc1ccc(C[C@@H](N[*:1])C(=O)[*:2])cc1; Octanoyl(6-Me) = CCC(C)CCCCC(=O)*; dCha = N[C@H](CC1CCCCC1)C(=O)O; Thr(3ξ) = CC(O)[C@H](N)C(=O)O; X4 = CC(C)CC1CNCC(C(=O)*)C1; Dab = NCC[C@H](N)C(=O)O; Dap = NC[C@H](N)C(=O)O
endpoint-label: MIC E. coli 060

CCC(C)CCCCC(=O)N[C@@H](CCN)C(=O)N[C@H](C(=O)N[C@@H](CCN)C(=O)N[C@H]1CCNC(=O)[C@H](C(C)O)NC(=O)[C@H](CCN)NC(=O)[C@H](CCN)NC(=O)[C@H](CC(C)C)NC(=O)[C@@H](CC2CCCCC2)NC(=O)[C@H](CCN)NC1=O)C(C)O (stereo partly drawn) [Example 22] ({Octanoyl(6-Me)}-[Dab][Thr(3ξ)][Dab][Dab][Dab][dCha]L[Dab][Dab][Thr(3ξ)]; lactam 4-C)	4 µg/mL
CCCCCC/C=C/c1ccc(C[C@H]2NC(=O)[C@H](CCN)NC(=O)[C@@H](NC(=O)[C@H](CN)NC(=O)[C@@H](NC(=O)C3CNCC(CC(C)C)C3)C(C)O)CCNC(=O)[C@H]([C@@H](C)O)NC(=O)[C@H](CCN)NC(=O)[C@H](CCN)NC(=O)[C@H](CC(C)C)NC2=O)cc1 (single isomer, unassigned; isomer 2) [Example 18]	2 µg/mL
CCCCCCCCc1ccc(C[C@H]2NC(=O)[C@H](CCN)NC(=O)[C@@H](NC(=O)[C@H](CN)NC(=O)[C@@H](NC(=O)C3CNCC(CC(C)C)C3)C(C)O)CCNC(=O)[C@H]([C@@H](C)O)NC(=O)[C@H](CCN)NC(=O)[C@H](CCN)NC(=O)[C@H](CC(C)C)NC2=O)cc1 (stereo partly drawn) [Example 23] (X4-[Thr(3ξ)][Dap][Dab][Dab][X5]L[Dab][Dab]T; lactam 3-C)	2 µg/mL

---

Quick reference for MIC E. coli 061 among some compounds
system: Escherichia coli; assay type: cell-based; conditions: strain 061
Bridge positions count the residues as written; N and C are the ends. Square brackets hold non-standard residues; d marks the D form. Peptide text beside a SMILES is read from it. * marks the point of attachment. ξ: configuration not given here. dCha = N[C@H](CC1CCCCC1)C(=O)O; Thr(3ξ) = CC(O)[C@H](N)C(=O)O; X7 = NCC(CC(=O)*)c1ccccc1; Dab = NCC[C@H](N)C(=O)O; Dap = NC[C@H](N)C(=O)O
endpoint-label: MIC E. coli 061 (µg/mL)

CC(C)C[C@@H]1NC(=O)[C@@H](CC2CCCCC2)NC(=O)[C@H](CCN)NC(=O)[C@@H](NC(=O)[C@H](CCN)NC(=O)[C@@H](NC(=O)CC(CN)C2CCCCC2)[C@@H](C)O)CCNC(=O)[C@H]([C@@H](C)O)NC(=O)[C@H](CCN)NC(=O)[C@H](CCN)NC1=O (single isomer, unassigned; isomer 2) [Example 87]	16
CC(C)C[C@@H]1NC(=O)[C@@H](CC2CCCCC2)NC(=O)[C@H](CCN)NC(=O)[C@@H](NC(=O)[C@H](CN)NC(=O)[C@@H](NC(=O)CC(CN)c2ccccc2)C(C)O)CCNC(=O)[C@H]([C@@H](C)O)NC(=O)[C@H](CCN)NC(=O)[C@H](CCN)NC1=O (some centres unmarked) [Example 39] (X7-[Thr(3ξ)][Dap][Dab][Dab][dCha]L[Dab][Dab]T; lactam 3-C)	32
